- Test system: NCI-H196 complex spheroid viability
- PROCEDURE DETAILS: Anticancer human tumor NCI-H196 cell line growth inhibition [LSD1];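 further: spheroids exposed to agents for 7 days before readout; 100% = DMSO vehicle control viability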
- ASSAY CONDITIONS: second compound 10 µM; first compound 0.01 µM; active compounds read low
REPORTED METRIC: viability, T/C (%)

COc1cc(Nc2ncc3c(n2)-c2ccc(Cl)cc2C(c2c(F)cccc2OC)=NC3)ccc1C(=O)O + NC1CC1c1ccc(-c2cccc(O)c2)cc1 | 114
O=C(C=Cn1cnc(-c2cc(C(F)(F)F)cc(C(F)(F)F)c2)n1)NNc1cnccn1 + NC1CCC(NC2CC2c2ccccc2)CC1 | 25.6
CC[C@@]1(O)C(=O)OCc2c1cc1n(c2=O)Cc2cc3c(CN(C)C)c(O)ccc3nc2-1 + NC1CC1c1ccc(-c2cccc(O)c2)cc1 | 115
COc1cc(Nc2ncc3c(n2)-c2ccc(Cl)cc2C(c2c(F)cccc2OC)=NC3)ccc1C(=O)O + NC1CCC(NC2CC2c2ccccc2)CC1 | 107
Nc1ncn(C2CC(O)C(CO)O2)c(=O)n1 (configuration not stated) + NC1CCC(NC2CC2c2ccccc2)CC1 | 94.8
Nc1ncn(C2CC(O)C(CO)O2)c(=O)n1 (configuration not stated) + NC1CC1c1ccc(-c2cccc(O)c2)cc1 | 106
CC[C@@]1(O)C(=O)OCc2c1cc1n(c2=O)Cc2cc3c(CN(C)C)c(O)ccc3nc2-1 + NC1CCC(NC2CC2c2ccccc2)CC1 | 109
Cn1ncnc1C1c2n[nH]c(=O)c3cc(F)cc(c23)NC1c1ccc(F)cc1 (configuration not stated) + NC1CC1c1ccc(-c2cccc(O)c2)cc1 | 104
Cn1ncnc1C1c2n[nH]c(=O)c3cc(F)cc(c23)NC1c1ccc(F)cc1 (configuration not stated) + NC1CCC(NC2CC2c2ccccc2)CC1 | 104
CC(C)CC(NC(=O)CNC(=O)c1cc(Cl)ccc1Cl)B1OC(=O)CC(CC(=O)O)(C(=O)O)O1 (configuration not stated) + NC1CC1c1ccc(-c2cccc(O)c2)cc1 | 52.9
O=C(C=Cn1cnc(-c2cc(C(F)(F)F)cc(C(F)(F)F)c2)n1)NNc1cnccn1 + NC1CC1c1ccc(-c2cccc(O)c2)cc1 | 29.2
CC1COCCN1c1cc(-c2ccnn2C)c2ccnc(-c3ccn[nH]3)c2n1 (configuration not stated) + NC1CCC(NC2CC2c2ccccc2)CC1 | 78.8

----------
- Test system: NCI-H196 complex spheroid viability
- PROCEDURE DETAILS: Anticancer human tumor NCI-H196 cell line growth inhibition [LSD1]; active means viability on the fitted dose curve at most 10% of control; inactive means the rest;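 further: spheroids exposed to agents for 7 days before readout; 100% = DMSO vehicle control viability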
- ASSAY CONDITIONS: second compound 1 µM; first compound 0.949 µM
Labels: Yes = active, No = inactive

NS(=O)(=O)OCC1CC(n2ccc3c(NC4CCc5ccccc54)ncnc32)CC1O (stereo not given) + NC1CC1c1ccc(-c2cccc(O)c2)cc1 | No
CCN(c1cc(-c2ccc(CN3CCOCC3)cc2)cc(C(=O)NCc2c(C)cc(C)[nH]c2=O)c1C)C1CCOCC1 + NC1CC1c1ccc(-c2cccc(O)c2)cc1 | No
Nc1ccccc1NC(=O)c1ccc(CNC(=O)OCc2cccnc2)cc1 + NC1CC1c1ccc(-c2cccc(O)c2)cc1 | Yes
O=C(C=Cc1cccc(S(=O)(=O)Nc2ccccc2)c1)NO + NC1CC1c1ccc(-c2cccc(O)c2)cc1 | Yes
COc1cc(C2c3cc4c(cc3C(OC3OC5COC(C)OC5C(O)C3O)C3COC(=O)C23)OCO4)cc(OC)c1O (stereo not given) + NC1CC1c1ccc(-c2cccc(O)c2)cc1 | No
O=C(C=Cc1cccc(S(=O)(=O)Nc2ccccc2)c1)NO + NC1CCC(NC2CC2c2ccccc2)CC1 | Yes
COc1cc(C2c3cc4c(cc3C(OC3OC5COC(C)OC5C(O)C3O)C3COC(=O)C23)OCO4)cc(OC)c1O (stereo not given) + NC1CCC(NC2CC2c2ccccc2)CC1 | No
CCN(c1cc(-c2ccc(CN3CCOCC3)cc2)cc(C(=O)NCc2c(C)cc(C)[nH]c2=O)c1C)C1CCOCC1 + NC1CCC(NC2CC2c2ccccc2)CC1 | No
Nc1ccccc1NC(=O)c1ccc(CNC(=O)OCc2cccnc2)cc1 + NC1CCC(NC2CC2c2ccccc2)CC1 | Yes
NS(=O)(=O)OCC1CC(n2ccc3c(NC4CCc5ccccc54)ncnc32)CC1O (stereo not given) + NC1CCC(NC2CC2c2ccccc2)CC1 | No

Values compiled from PubChem BioAssay AID1918958.
